system: Engineered E. coli AG103 armA; experiment: Activity against G1405-methylated 16S-rRNA, E. coli AG103 armA; assay type: cell-based
Readings of Activity E. coli AG103 armA for the listed compounds
assay_metric: Activity E. coli AG103 armA

[
  {
    "compound": "CNC1C(OC2OC(CO)C(N)C(O)C2O)OC2CC(N)C(OC3C(N)CC(N)C(OCCO)C3O)OC2C1O (stereo not drawn) [DC167, 6-O-(2-Hydroxyethyl)-apramycin]",
    "assay_metric": "Activity E. coli AG103 armA",
    "op": "=",
    "assay_result": 4
  },
  {
    "compound": "CNC1C(OC2OC(CO)C(N)C(O)C2O)OC2CC(N)C(OC3CC(O)C(N)CC3N)OC2C1O (stereo not drawn) [DC169, 5-Deoxy-apramycin]",
    "assay_metric": "Activity E. coli AG103 armA",
    "op": "=",
    "assay_result": 1
  },
  {
    "compound": "CNC1C(OC2OC(CO)C(N)C(O)C2O)OC2CC(N)C(OC3C(N)CC(N)C(O)C3OC3OC(CO)C(OCCO)C3O)OC2C1O (stereo not drawn) [DC178]",
    "assay_metric": "Activity E. coli AG103 armA",
    "op": "=",
    "assay_result": 2
  },
  {
    "compound": "CNC1C(OC2OC(CO)C(N)C(O)C2O)OC2CC(N)C(OC3C(N)CC(N)C(O)C3F)OC2C1O (stereo not drawn) [DC170, 5-Deoxy-5-fluoro apramycin]",
    "assay_metric": "Activity E. coli AG103 armA",
    "op": "=",
    "assay_result": 2
  },
  {
    "compound": "CNC1C(OC2OC(CO)C(N)C(O)C2O)OC2CC(N)C(OC3C(N)CC(N)C(O)C3OC3OC(CO)C(O)C3O)OC2C1O [DC131, 5-O—(β-D-Ribefuranosyl) apramycin]",
    "assay_metric": "Activity E. coli AG103 armA",
    "op": "=",
    "assay_result": 1
  },
  {
    "compound": "CNC1C(OC2OC(CO)C(N)C(O)C2O)OC2CC(N)C(OC3C(N)CC(N)C(O)C3OC3OC(CO)C(OC4OC(CN)C(O)C(O)C4N)C3O)OC2C1O (stereo not drawn) [DC138, 5-O-β-(Paromobiosyl) apramycin]",
    "assay_metric": "Activity E. coli AG103 armA",
    "op": "<",
    "assay_result": 0.125
  },
  {
    "compound": "CNC1C(OC2OC(CO)C(N)C(O)C2O)OC2CC(N)C(OC3C(N)CC(N)C(O)C3OC3OCC(O)C3O)OC2C1O (stereo not drawn) [DC146, 5-O-β-D—(Erythrofuranosyl) apramycin]",
    "assay_metric": "Activity E. coli AG103 armA",
    "op": "=",
    "assay_result": 1
  },
  {
    "compound": "CNC1C(OC2OC(CO)C(N)C(O)C2O)OC2CC(N)C(OC3C(N)CC(N)C(O)C3OC3OC(CO)C(OCCN)C3O)OC2C1O (stereo not drawn) [DC124]",
    "assay_metric": "Activity E. coli AG103 armA",
    "op": "=",
    "assay_result": 0.5
  },
  {
    "compound": "CN[C@@H]1[C@@H](O)[C@@H](O[C@@H]2[C@@H](O)[C@H](O[C@H]3OC(CNCCO)=CC[C@H]3N)[C@@H](N)C[C@H]2NC(=O)[C@@H](O)CCN)OC[C@]1(C)O [PLZ, plazomicin, reference compound]",
    "assay_metric": "Activity E. coli AG103 armA",
    "op": ">",
    "assay_result": 32
  },
  {
    "compound": "CNC1C(OC2OC(CO)C(N)C(O)C2O)OC2CC(N)C(OC3C(N)CC(N)C(O)C3F)OC2C1O (stereo not drawn) [DC168, 5-Deoxy-5-epi-fluoro apramycin]",
    "assay_metric": "Activity E. coli AG103 armA",
    "op": "=",
    "assay_result": 1
  }
]

====

Readings of Antibacterial activity AG173 E. coli AAC(3)-IV for the listed compounds
tested on: AG173 E. coli AAC(3)-IV; assay: Antibacterial activity, clinical isolate AG173; type: cell-based
assay_metric: Antibacterial activity AG173 E. coli AAC(3)-IV

[
  {
    "compound": "CNC1C(OC2OC(CO)C(N)C(O)C2O)OC2CC(N)C(OC3CC(O)C(N)CC3N)OC2C1O (stereo not drawn)",
    "assay_result": 32
  },
  {
    "compound": "CNC1C(OC2OC(CO)C(N)C(O)C2O)OC2CC(N)C(OC3C(N)CC(N)C(O)C3OC3OC(CO)C(OCCO)C3O)OC2C1O (stereo not drawn)",
    "assay_result": "32-64"
  },
  {
    "compound": "CN[C@H]1C(O)C2O[C@H](O[C@@H]3C(N)C[C@@H](NC(=O)C(O)CCN)[C@@H](O)[C@H]3O)C(N)C[C@@H]2O[C@@H]1O[C@H]1OC(CO)[C@@H](N)[C@H](O)C1O (stereo partly drawn)",
    "assay_result": "4-8"
  }
]

====

tested on: clinical isolates carrying APH(3′)-VI; assay: MIC broth microdilution, APH(3′)-VI; type: cell-based; details: IMM Univ. Zurich

[
  {
    "compound": "CNC1C(OC2OC(CO)C(N)C(O)C2O)OC2CC(N)C(OC3C(N)CC(N)C(O)C3OC3OC(CNC=O)C(O)C3O)OC2C1O (stereo not shown)",
    "endpoint_unit": "µg/mL",
    "MIC": 8
  },
  {
    "compound": "CNC1C(O)C2O[C@H](O[C@@H]3C(N)C[C@@H](N)C(O)[C@H]3O[C@@H]3O[C@H](CNCCN)[C@@H](O)[C@H]3O)C(N)C[C@@H]2O[C@@H]1O[C@H]1OC(CO)[C@@H](N)[C@H](O)C1O (stereo partly shown)",
    "endpoint_unit": "µg/mL",
    "MIC": 4
  },
  {
    "compound": "CNC1C(OC2OC(CO)C(N)C(O)C2O)OC2CC(N)C(OC3C(N)CC(N)C(O)C3OC3OC(CO)C(OC4OC(CN)C(O)C(O)C4N)C3O)OC2C1O (stereo not shown)",
    "endpoint_unit": "µg/mL",
    "MIC": 4
  },
  {
    "compound": "CNC1C(O)C2O[C@H](O[C@@H]3C(N)C[C@@H](N)C(O)[C@H]3OC3O[C@H](CN)[C@@H](O)[C@H]3O)C(N)C[C@@H]2O[C@@H]1O[C@H]1OC(CO)[C@@H](N)[C@H](O)C1O (stereo partly shown)",
    "endpoint_unit": "µg/mL",
    "MIC": 4
  },
  {
    "compound": "CNC1C(O[C@H]2OC(CO)[C@@H](N)C(O)C2O)O[C@H]2CC(N)[C@@H](O[C@@H]3C(N)C[C@@H](N)C(O)C3O)OC2C1O (stereo partly shown)",
    "endpoint_unit": "µg/mL",
    "MIC": 4
  },
  {
    "compound": "CNC1C(OC2OC(CO)C(N)C(O)C2O)OC2CC(N)C(OC3C(N)CC(N)C(O)C3OC3OC(CO)C(O)C3O)OC2C1O (stereo not shown)",
    "endpoint_unit": "µg/mL",
    "MIC": 4
  },
  {
    "compound": "CNC1C(OC2OC(CO)C(N)C(O)C2O)OC2CC(N)C(OC3C(N)CC(N)C(O)C3OC3OC(CO)C(OCCO)C3O)OC2C1O (stereo not shown)",
    "endpoint_unit": "µg/mL",
    "MIC": 16
  }
]

====

system: AG220, Pseudomonas aeruginosa ATCC27853; assay: MIC reference strain AG220; type: cell-based; settings: Pseudomonas aeruginosa, ATCC27853, read-out: MIC AG220 P. aeruginosa

[
  {
    "molecule": "CN[C@H]1C(O)C2O[C@H](O[C@@H]3C(N)C[C@@H](NC(=O)C(O)CCN)[C@@H](O)[C@H]3O)C(N)C[C@@H]2O[C@@H]1O[C@H]1OC(CO)[C@@H](N)[C@H](O)C1O (stereo partly drawn)",
    "MIC": "4 µg/mL"
  },
  {
    "molecule": "CNC1C(O)C2O[C@H](O[C@@H]3C(N)C[C@@H](N)[C@@H](O)[C@H]3OCC(O)CO)C(N)C[C@@H]2O[C@@H]1O[C@H]1OC(CO)[C@@H](N)[C@H](O)C1O (stereo partly drawn)",
    "MIC": "16 to 32 µg/mL"
  },
  {
    "molecule": "CN[C@H]1C(O)C2O[C@H](O[C@@H]3C(N)C[C@@H](N)[C@@H](O)[C@H]3OCCCN)C(N)C[C@@H]2O[C@@H]1O[C@H]1OC(CO)[C@@H](N)[C@H](O)C1O (stereo partly drawn)",
    "MIC": "8 µg/mL"
  },
  {
    "molecule": "CNC1C(OC2OC(CO)C(N)C(O)C2O)OC2CC(N)C(OC3C(N)CC(N)C(O)C3OCC(O)CN)OC2C1O (stereo not drawn)",
    "MIC": "4 µg/mL"
  },
  {
    "molecule": "CNC1C(O)C2O[C@H](O[C@@H]3C(N)C[C@@H](N)[C@@H](O)[C@H]3OCCCO)C(N)C[C@@H]2O[C@@H]1O[C@H]1OC(CO)[C@@H](N)[C@H](O)C1O (stereo partly drawn)",
    "MIC": "64 µg/mL"
  },
  {
    "molecule": "CN[C@H]1C(O)C2O[C@H](O[C@@H]3C(N)C[C@@H](N)[C@@H](O)[C@H]3OCC(O)CN)C(N)C[C@@H]2O[C@@H]1O[C@H]1OC(CO)[C@@H](N)[C@H](O)C1O (stereo partly drawn)",
    "MIC": "2 to 4 µg/mL"
  }
]

All figures here come from patent US11485751B2.
